What pKd was measured for each of the following?
Biological target: T1, Plasmodium falciparum histidine-rich protein II (HRP-II) (Plasmodium falciparum, UniProt P05227 22-332)
T1 construct: Coating antigen of all ELISAs; also called HRP-II protein; MA-HRPII Ag protein
T1 sequence (looked up): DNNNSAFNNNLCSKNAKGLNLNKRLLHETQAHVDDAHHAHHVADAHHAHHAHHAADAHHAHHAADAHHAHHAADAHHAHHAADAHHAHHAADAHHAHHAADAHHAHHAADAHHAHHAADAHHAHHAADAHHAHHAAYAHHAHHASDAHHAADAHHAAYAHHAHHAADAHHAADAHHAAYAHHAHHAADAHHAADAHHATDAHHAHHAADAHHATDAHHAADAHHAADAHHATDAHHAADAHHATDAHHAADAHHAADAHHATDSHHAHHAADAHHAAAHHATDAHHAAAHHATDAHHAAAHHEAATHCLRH
Experiment: indirect ELISA, four antigen coating concentrations;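 further: optical density read across an antibody dilution series at each antigen coating level, curves plotted on log scale, KD derived as reciprocal of the averaged constant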
Just so you know, pKd here is -log10 of the concentration in molar units; reply with that number alone.

Per the record, Mutation 1-16 (antibody, mouse IgG2b, kappa, V domains shown, Mutation 1 as framework) VH: EVQLQQSGPEVVKPGASVKISCKASGYTITDYYMNWVKQSHGKGLEWIGDINPIQGGTAYNQKFRDKATLTVDKSSNTAYMELRSLTSEDSALYYCTRGAEDYWGQGTTLTVSS VL: DVVLTQTPLSLSVTIGQPASISCKSSQSLLYSQGKIYLNWFQQRPGQSPKRLMYQVSKLDPGIPDRFSGSGSETDFTLKISRVEAEDLGVYYCLQGTYSPQTFGGGTKLEIKR has pKd of 9.30

For record Mutation 1-37 (antibody, mouse IgG2b, kappa, V domains shown, Mutation 1 as framework) VH: EVQLQQSGPEVVKPGASVKISCKASGYTITDYYMNWVKQSHGKGLEWIGDINPINGGTAYQQKFRDKATLTVDKSSNTAYMELRSLTSEDSALYYCTKGAEDYWGQGTTLTVSS VL: DVVLTQTPLSLSVTIGQPASISCKSSQSLLYSNGKIYLNWFQQRPGQSPKRLMYQISKLEPGIPDRFSGSGSETDFTLKISRVEAEDLGVYYCLQATYYPQTFGGGTKLEIKR the listed pKd is 9.44
